Parameter: composite z-score. Scope: all listed entries.
Assay: small molecules captured by biotinylated probe aFSTL3 – biochemical, small-molecule microarray, fluorescence 635/667, stem cell growth factor project, primary screen (AID 1064);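 also: measures binding of the biotinylated anti-FSTL3 antibody to printed compounds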
Settings: higher = more signal

| compound | composite z-score |
| --- | --- |
| O=C1O[C@@H](c2ccccc2)[C@@H](c2ccccc2)N2[C@@H](c3ccc(O)cc3)[C@]3(C(=O)Nc4ccc(C#CCCO)cc43)[C@@H](C(=O)O)[C@H]12 | 3.16 |
| CO[C@H]1O[C@H](CO)[C@@H](OC(=O)Nc2ccccc2-c2ccccc2)[C@H](OC(=O)Nc2ccccc2-c2ccccc2)[C@H]1OC(=O)Nc1ccccc1-c1ccccc1 | -0.0136 |
| Cc1cccc(/C=C/C=O)c1 | -0.305 |
| CC(C)C(CO)N1C(=O)[C@@H]2[C@H]3C(=O)OCC=C[C@H]3OC23C=CCN(c2ccc4ccccc4c2)C(=O)[C@@H]13 (some centres undefined) | 0.316 |

====

Assay: viability profiling in MM1S myeloma cells – cell-based, resazurin fluorescence, basal, 24 h, PK04 Diversity Set, profiling panel (AID 1174);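 also: MM1S multiple myeloma cell line; test concentration not given here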
Settings: higher = more signal, called active from +8 up or from −8 down
Kindly return class 1 if reported z-score is no lower than -0.3; return class 0 if it is lower.

| molecule | assigned.class |
| --- | --- |
| C=C(CCCC)C(=O)CC[C@H](OC(=O)c1ccccc1-c1ccccc1C(=O)O)c1ccc(CO)o1 | class 1 |
| Cc1c(NC(=O)/C(C#N)=C/C=C/c2ccccc2)c(=O)n(-c2ccccc2)n1C | class 0 |
| O=C1C[C@@](C(=O)O)(c2ccc([N+](=O)[O-])cc2)[C@@H](c2ccc(CO)cc2I)N1CC12CC3CC(CC(C3)C1)C2 | class 0 |
| Cn1c2c(c3ccccc31)C(=O)C1NC2C=CC1(C)C(=O)OCc1ccccc1 (configuration not stated) | class 0 |
| COc1ccc(C#Cc2ccc3c(c2)[C@]2(C(=O)N3)[C@H](C(=O)N3CCc4cc(OC)c(OC)cc4C3)[C@H]3C(=O)O[C@H](c4ccccc4)[C@H](c4ccccc4)N3[C@@H]2c2ccc(OCCO)cc2)cc1 | class 1 |
| C=CCOC(=O)[C@@H]1[C@H]2C(=O)O[C@H](c3ccccc3)[C@H](c3ccccc3)N2[C@H](c2ccc(OCCOC(=O)[C@H]3C[C@H]4C(=O)N[C@@H](CC(C)C)C(=O)N4[C@H]3c3cccc(OCCO)c3)cc2)[C@@]12C(=O)Nc1ccc(I)cc12 | class 0 |
| C=C(/C(=C/C[C@@H](OC(C)=O)c1ccc(CO)o1)c1cnc2ccccc2c1)C(C)C | class 1 |

====

Target: Carbonic anhydrase 2 (Homo sapiens)
Assay: compounds binding carbonic anhydrase 2 – biochemical, small-molecule microarray, Alexa647-labelled CAII, profiling panel (AID 1122)
Conditions: CAII-A647 binding fluorescence, higher = more signal

| compound | subject.of.test | composite z-score |
| --- | --- | --- |
| O=C1OCCC=C[C@H]2OC34C=CCN(CCN5CCOCC5)C(=O)[C@H]3N(CCO)C(=O)[C@@H]4C12 (stereo partly drawn) | Carbonic anhydrase 2 (Homo sapiens) | 0.72 |
| CC(=O)n1cc(C(O)C2C=CC3C(=O)N(c4ccccc4)C(=O)C3N2Nc2ccc(C#N)cc2)c2ccccc21 (stereo not drawn) | Carbonic anhydrase 2 (Homo sapiens) | 0.798 |
| CC(C)NC(=O)[C@@]1(c2ccc([N+](=O)[O-])cc2)CC(=O)N(C(C)C)[C@@H]1c1ccc(CO)cc1 | Carbonic anhydrase 2 (Homo sapiens) | 0.718 |
| CN1C(=O)C2C=CC(C(O)c3ccc(Br)cc3)N(Nc3ccccc3)C2C1=O (stereo not drawn) | Carbonic anhydrase 2 (Homo sapiens) | 0.678 |
| O=C1c2ccccc2[C@@]2(Cc3ccccc3N(Cc3ccccc3)C2=O)[C@H](c2ccc(CO)cc2)N1Cc1ccccc1C(F)(F)F | Carbonic anhydrase 2 (Homo sapiens) | 0.781 |
| Cn1c2c(c3ccccc31)C(=O)C1NC2C=CC1(C)C(=O)OCc1ccccc1 (stereo not drawn) | Carbonic anhydrase 2 (Homo sapiens) | 0.682 |
| CC(=O)NCCCC[C@@H]1NC(=O)[C@@H]2C[C@H](C(=O)NCCCCCC[N+](C)(C)C)[C@H](c3cccc(OCCO)c3)N2C1=O | Carbonic anhydrase 2 (Homo sapiens) | 0.675 |
| CCCNC(=O)[C@@]1(c2ccc([N+](=O)[O-])cc2)CC(=O)N(CC23CC4CC(CC(C4)C2)C3)[C@@H]1c1ccc(CO)cc1I | Carbonic anhydrase 2 (Homo sapiens) | 0.118 |

====

Parameter z-score: see the listing below.
Experiment: resazurin metabolic signal in HepG2 cells – cell-based, resazurin fluorescence, 24 h, PK04 Diversity Set, profiling panel (AID 1172); also: test concentration not given here
Conditions: HepG2 viability, higher = more signal

| compound | z-score |
| --- | --- |
| C=C[C@@H](C)[C@@H](OC(=O)Nc1ccc(OC)cc1)c1ccc(O)c2ccccc12 | -1.42 |
| O=C1OCCC/C=C\[C@H]2OC34C=CCN(CCN5CCOCC5)C(=O)[C@H]3N(CCO)C(=O)[C@@H]4C12 (stereo partly specified) | -0.881 |
| O=C1O[C@@H](c2ccccc2)[C@@H](c2ccccc2)N2[C@@H](c3ccc(O)cc3)[C@]3(C(=O)Nc4ccccc43)[C@@H](C(=O)NC[C@H](O)c3ccccc3)[C@H]12 | 1.42 |
| CN1C(=O)C2C=CC(C(O)C3=C[C@H]4C[C@@H](C3)C4(C)C)N(Nc3ccc([N+](=O)[O-])cc3[N+](=O)[O-])C2C1=O (stereo partly specified) | -0.241 |
| CN(C)CCCCCCNC(=O)[C@@H]1C[C@@H]2C(=O)N[C@@H](Cc3ccccc3)C(=O)N2[C@@H]1c1cccc(OCCO)c1 | -0.272 |
| C#C[C@H]1Oc2ccccc2S(=O)(=O)N2CCC[C@@H]12 | -0.87 |
| CC(C)(C)OC(=O)CC[C@@]1(C(=O)N2CCOCC2)N=C(c2ccc(OCCCO)cc2)O[C@@H]1c1ccccc1N=[N+]=[N-] | 0.725 |
| Cc1ccc(S[C@]2(C(=O)NCCCN(C)C)CC(=O)N(C(C)C)[C@@H]2c2ccc(CO)cc2I)cc1 | 0.533 |
| O=C1O[C@@H](c2ccccc2)[C@@H](c2ccccc2)N2[C@@H](c3ccc(O)cc3)[C@]3(C(=O)Nc4ccccc43)[C@@H](C(=O)N3CCCCCCC3)[C@H]12 | 0.305 |
| C=C(CCCC)C(=O)CC[C@H](OC(C)=O)c1ccc(CO)o1 | -0.658 |
| C=C[C@H](C)[C@H](OC(=O)Nc1ccc(OC)cc1)c1ccc(O)c2ccccc12 | -0.475 |
| CCCC[C@@H]1C[C@H]1[C@@H](NC(=O)c1ccco1)c1ccccc1 | 1.39 |
| CCCC[C@@H]1C[C@H]1[C@@H](NC(=O)c1ccccc1)c1ccccc1 | 0.237 |
| CC(C)[C@H]1COC(=O)N1C(=O)[C@H]1[C@@H](c2ccccc2)N(c2ccccc2)O[C@@H]1C | 0.701 |
| O=C(NCc1ccccc1)[C@@H]1c2ccccc2C(=O)N(C2CCCCC2)[C@H]1c1ccc(CO)cc1 | -0.178 |
| COc1ccccc1CN1C(=O)c2ccccc2[C@](Cc2ccccc2I)(C(=O)NCc2ccccc2)[C@@H]1c1ccc(CO)cc1 | -0.583 |
| O=C1c2ccccc2[C@](Cc2ccccc2I)(C(=O)O)[C@H](c2ccc(CO)cc2)N1Cc1ccccc1C(F)(F)F | 1.02 |
| CN1C(=O)C2C=CC(C(O)c3ccccc3)N(NC(=O)OC(C)(C)C)C2C1=O (stereo unspecified) | -1.24 |
| C=CC[C@@]1(C(N)=O)N=C(c2ccc(OCCCO)cc2)O[C@@H]1c1ccccc1N=[N+]=[N-] | 0.895 |
| O=C1O[C@H](c2ccccc2)[C@H](c2ccccc2)N2[C@H]1[C@@H](C(=O)NC[C@H](O)c1ccccc1)[C@]1(C(=O)Nc3ccc(C#CC4=CCCCC4)cc31)[C@H]2c1ccc(O)cc1 | -0.654 |
| CC(=O)n1cc(C(O)C2C=CC3C(=O)N(c4ccccc4)C(=O)C3N2Nc2ccc(C#N)cc2)c2ccccc21 (stereo unspecified) | -0.592 |
| CN1C(=O)C2C=CC(C(O)c3ccc(Br)cc3)N(Nc3ccccc3)C2C1=O (stereo unspecified) | 0.0752 |
| CCOC(=O)C[C@H]1[C@H](OC(=O)c2cc3ccccc3oc2=O)[C@@H](NC(=O)c2ccc3ccccc3c2)c2cc(OCCCO)ccc2N1C(=O)c1ccccc1 | -0.438 |
| C=CCNC(=O)[C@H]1[C@@H]2C(=O)O[C@@H](c3ccccc3)[C@@H](c3ccccc3)N2[C@@H](c2ccc(OCCO)cc2)[C@]12C(=O)N(C(=O)OCCOC)c1ccc(C#CC3(O)CCCCCC3)cc12 | -0.162 |
| O=C1C2C=CC(C(O)c3ccccn3)N(Nc3ccccc3F)C2C(=O)N1c1ccccc1 (stereo unspecified) | 0.248 |
| C=C[C@H](OC)[C@@H](OC(=O)Nc1ccc(SC)cc1)c1ccc(OCCO)cc1 | -0.237 |
| [N-]=[N+]=NCc1ccccc1C[C@]1(C(=O)NCCN2CCOCC2)N=C(c2ccc(OCCCO)cc2)O[C@H]1c1ccccc1CN=[N+]=[N-] | 0.0176 |
| CC(=O)NCCCC[C@@H]1NC(=O)[C@@H]2C[C@H](C(=O)NCCCCCC[N+](C)(C)C)[C@H](c3cccc(OCCO)c3)N2C1=O | -0.29 |
| O=C1NC(=O)C2C1C=CC(C(O)c1cccs1)N2Nc1ccccn1 (stereo unspecified) | -0.687 |
| CCOC(=O)C=Cc1cccc(OC)c1O | -0.537 |
| O=C(NCc1ccccc1)[C@@H]1c2ccccc2C(=O)N(Cc2cc(F)cc(C(F)(F)F)c2)[C@H]1c1ccc(CO)cc1 | -0.745 |
